target: Polyunsaturated fatty acid lipoxygenase ALOX15 (Homo sapiens) (UniProt P16050); assay: qHTS Assay for Inhibitors of 15-hLO (15-human lipoxygenase); details: purified 15hLO-1, xylenol orange hydroperoxide absorbance; series mostly up to 57.1 µM; further: on the % scale 0 is the no-effect control and ±100 the full control effect; nearly all actives have a fitted effect of over 55% in size
Sequence (P16050 whole entry, looked up): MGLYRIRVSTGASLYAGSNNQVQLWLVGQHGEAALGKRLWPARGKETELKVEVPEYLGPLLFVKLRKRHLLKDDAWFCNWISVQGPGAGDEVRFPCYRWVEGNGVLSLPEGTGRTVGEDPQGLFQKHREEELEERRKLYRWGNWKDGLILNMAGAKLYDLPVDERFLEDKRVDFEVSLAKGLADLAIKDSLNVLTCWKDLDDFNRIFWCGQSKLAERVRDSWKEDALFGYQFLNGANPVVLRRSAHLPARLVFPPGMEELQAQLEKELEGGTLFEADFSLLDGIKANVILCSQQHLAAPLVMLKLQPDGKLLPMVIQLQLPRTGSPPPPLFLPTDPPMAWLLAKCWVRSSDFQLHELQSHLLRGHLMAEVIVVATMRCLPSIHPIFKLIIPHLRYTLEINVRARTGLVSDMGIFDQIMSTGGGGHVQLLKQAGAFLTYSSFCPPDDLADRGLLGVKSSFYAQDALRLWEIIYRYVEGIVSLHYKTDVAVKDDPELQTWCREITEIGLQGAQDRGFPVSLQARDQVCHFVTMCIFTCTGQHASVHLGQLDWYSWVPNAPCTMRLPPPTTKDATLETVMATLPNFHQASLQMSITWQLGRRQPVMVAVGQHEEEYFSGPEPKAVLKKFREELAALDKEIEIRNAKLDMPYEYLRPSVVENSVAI
The campaign covered roughly 74,000 compounds. About 1,100 (1.5%) were called active. Not shown: some 5% with an inconclusive outcome. What follows is part of a selection rich in actives, with near analogues and random picks from the rest.

compound	activity change, negative = inhibition
Cc1ccnc(N2CCC(C(=O)NC3CCCCCC3)CC2)n1	inactive
COc1ccc(C(=O)n2nc(-c3ccc(Cl)cc3)nc2N)cc1OC	inactive
C=C1C([C@@]2(C)C(OC(C)=O)CC(=O)O[C@@](C)(COC(C)=O)C2CC(=O)OC)C(OC=O)C(OC(=O)C(O)C(C)CC)[C@]2(C)C(c3ccoc3)CC(=O)C12O (stereo not given in full)	inactive
CO[C@H]1COC(=O)[C@@H](C)NC(=O)C/C=C\[C@@H](C)[C@H](OC)COC(=O)C/C=C\[C@@H]1C	-1.15% [at 11.4 µM] (inactive)
CCOc1ccc2[nH]c(=O)c(CN(Cc3nnnn3Cc3ccccc3)CC3CCCO3)cc2c1 (stereo not given)	inactive
